Data provenance is paper PMC9065200.

- subject_of_test: Aβ42 monomers (Homo sapiens, UniProt P05067)
- Construct: commercial Abeta(1-42) peptide (Nanjing Peptide Biotech), cut from APP precursor; monomer stock in hexafluoroisopropanol
- test_protocol: fluorescence titration, one-site binding regression
- setup_conditions: read-out: Aβ monomers / Kd
measurement_kind: pKd
Keep in mind that pKd stands for -log10 of concentration in molar terms.

Query (compound): CN(C)c1ccc2cc(/C=C/C3=CC(/C=C/C=C4N(C)c5ccccc5C4(C)C)=[O+][B-](F)(F)O3)ccc2c1 [compound 7, probe 7] ; field requested: pKd 7.19

* * *

- subject_of_test: Aβ42 oligomers (Homo sapiens, UniProt P05067)
- Construct: commercial Abeta(1-42) peptide, cut from APP precursor; soluble oligomers prepared via HFIP/water, stirred 24-48 h at ~22 °C, confirmed by TEM
- Sequence (P05067 672-713): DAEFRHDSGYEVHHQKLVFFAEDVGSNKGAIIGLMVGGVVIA
- test_protocol: fluorescence titration, one-site binding regression
- setup_conditions: read-out: Aβ oligomers / Kd
measurement_kind: Kd
Field: value (include unit after the number)

Given the compound CN(C)c1ccc2cc(/C=C/C3=CC(/C=C/C=C4N(C)c5ccccc5C4(C)C)=[O+][B-](F)(F)O3)ccc2c1 , what is its reported Kd? 167 nM
